Biological target: UniProt O06543
Test: MCR inhibition, colorimetric assay, dose-response curves
Assay type: biochemical
Set-up: made in house
Conditions: Log10 IC50, repeat 3; 4-parameter logistic fit coefficient
Give measured IC50 for each item. Keep answers brief.
The reply must contain the numeric value and, after it, the unit.

Note to self: IC50 recorded for COc1cccc(CCOc2cccc(SC(C)C(=O)SCCNC(=O)CCNC(=O)C(O)C(C)(C)COP(=O)(O)OP(=O)(O)OCC3OC(n4cnc5c(N)ncnc54)C(O)C3OP(=O)(O)O)c2)c1 (racemic) was 1.49 µM

Note to self: IC50 recorded for CCCCCOc1ccc(SC(C)C(=O)SCCNC(=O)CCNC(=O)C(O)C(C)(C)COP(=O)(O)OP(=O)(O)OCC2OC(n3cnc4c(N)ncnc43)C(O)C2OP(=O)(O)O)cc1 (racemic) was 0.846 µM

Note to self: IC50 recorded for CC(Sc1ccc(OCCc2cccc(C(F)(F)F)c2)cc1)C(=O)SCCNC(=O)CCNC(=O)C(O)C(C)(C)COP(=O)(O)OP(=O)(O)OCC1OC(n2cnc3c(N)ncnc32)C(O)C1OP(=O)(O)O (racemic) was 1.04 µM

Note to self: IC50 recorded for CC(Sc1cccc(OCCc2ccccc2)c1)C(=O)SCCNC(=O)CCNC(=O)C(O)C(C)(C)COP(=O)(O)OP(=O)(O)OCC1OC(n2cnc3c(N)ncnc32)C(O)C1OP(=O)(O)O (racemic) was 0.839 µM

---

Molecular target: Mycobacterium tuberculosis α-methylacyl-CoA racemase (MCR) (Mycobacterium tuberculosis, UniProt O06543)
Sequence (O06543 whole entry): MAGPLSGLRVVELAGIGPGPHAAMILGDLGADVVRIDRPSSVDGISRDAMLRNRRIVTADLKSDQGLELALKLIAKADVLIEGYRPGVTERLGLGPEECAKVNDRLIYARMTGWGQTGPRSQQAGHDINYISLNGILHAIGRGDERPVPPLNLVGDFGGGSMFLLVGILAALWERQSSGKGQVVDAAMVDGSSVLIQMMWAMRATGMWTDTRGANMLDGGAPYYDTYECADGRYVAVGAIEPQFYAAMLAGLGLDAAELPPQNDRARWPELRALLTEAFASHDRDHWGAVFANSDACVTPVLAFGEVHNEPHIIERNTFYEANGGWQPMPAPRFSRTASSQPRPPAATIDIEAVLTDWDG
Assay: MCR inhibition, colorimetric assay, dose-response curves
Assay type: biochemical
Design: made in house
Settings: pIC50, mean ± SEM, n = 3; MCR 3.12 nM, substrate 96 μM, 10 min preincubation, pH 7.4
Give measured IC50 for each item. Keep answers brief.
The reply must contain the numeric value and, after it, the unit.

Note to self: IC50 recorded for CC(Sc1ccc(OCCc2ccccc2)cc1)C(=O)SCCNC(=O)CCNC(=O)C(O)C(C)(C)COP(=O)(O)OP(=O)(O)OCC1OC(n2cnc3c(N)ncnc32)C(O)C1OP(=O)(O)O (racemic) was 2.51 µM

Note to self: IC50 recorded for COc1cccc(CCOc2ccc(SC(C)C(=O)SCCNC(=O)CCNC(=O)C(O)C(C)(C)COP(=O)(O)OP(=O)(O)OCC3OC(n4cnc5c(N)ncnc54)C(O)C3OP(=O)(O)O)cc2)c1 (racemic) was 0.813 µM

Note to self: IC50 recorded for CC(Sc1cccc(OCCc2ccccc2)c1)C(=O)SCCNC(=O)CCNC(=O)C(O)C(C)(C)COP(=O)(O)OP(=O)(O)OCC1OC(n2cnc3c(N)ncnc32)C(O)C1OP(=O)(O)O (racemic) was 0.832 µM

Note to self: IC50 recorded for COc1cccc(CCOc2cccc(SC(C)C(=O)SCCNC(=O)CCNC(=O)C(O)C(C)(C)COP(=O)(O)OP(=O)(O)OCC3OC(n4cnc5c(N)ncnc54)C(O)C3OP(=O)(O)O)c2)c1 (racemic) was 1.41 µM

Source of measurements: paper PMC12682127
